Assay: G06 Cancer Cell Toxicity qHTS against the NCATS CANVASS Library (AID 1347368); also: nearly all actives have a fitted effect of over 60% in size
Conditions: G06 dog glioma cells, viability ATP luminescence, 72 h; series mostly up to 46.1 µM
Records with an inconclusive call do not appear. Activity calls are given as the source filed them. Calls follow the shape of the dose curve; as a rule, active = well fitted cell-killing curve with a large enough effect; inconclusive = small, poorly fitted or top-dose-only effect; inactive = flat fitted curve, though single readings scatter.
Possible outcomes: label 1 = active, label 0 = inactive

1) CCCCC[C@@H]1OC(=O)[C@@H](C)N(C)C(=O)[C@H](CCCCC)OC(=O)C(C)N(C)C(=O)[C@H](CCCCC)OC(=O)[C@@H](C)N(C)C(=O)[C@H](CCCCC)OC(=O)C(C)N(C)C1=O (some centres undefined) : label 1
2) CCCC[C@@H]1CC[C@H]2CCCC(CCC)N12 (some centres undefined) : label 0
3) CC[N@@+]1([O-])C[C@]2(C)CC[C@@H](O)[C@@]34C5C[C@H]6CC[C@@]5(C(C[C@H]23)C41)[C@H](O)[C@@]6(O)CO (some centres undefined) : label 0
4) c1ccc2c3c([nH]c2c1)CNCC3 : label 0
5) CC1=CC(=O)C2=C(C)C[C@H](O)[C@@H]3[C@H](OC(=O)[C@@H]3C)[C@@H]12 : label 0
6) NCCc1ccccc1 : label 0
7) C[C@@H]1CC[C@@H](c2ccoc2)N2C[C@@]3(CC[C@@H]12)CS[C@@]1(CC[C@H]2[C@H](C)CC[C@@H](c4ccoc4)N2[C@@H]1O)C3 : label 1
8) CC1=CC2CC[C@@H]3[C@@H](C)C[C@H](C)[C@@H](C1)N23 (some centres undefined) : label 0
9) CNCCc1c[nH]c2ccccc12 : label 0
